Target: Serine/threonine-protein kinase mTOR (Homo sapiens) (UniProt P42345)
Conditions: at 10 µM
Give measured residual activity for each item. Keep answers brief.

// below: answered molecules
Ic1cccc(CSc2nnc(-c3ccncc3)o2)c1 = 102%
c1ccc2c(-c3ccncc3)c[nH]c2c1 = 107%

Here's the next entry for you.
Task: Given the molecule COc1ccc(S(=O)(=O)N(CCO)c2ccccc2CN(C)C/C=C/c2ccc(Cl)cc2)cc1 , what is its reported residual activity?
Result: 96%

----------
Biological target: Protein kinase C zeta type (Homo sapiens)
Conditions: at 10 µM
Measurement label: residual activity (%)
One number for each entry, in %.

Consider the reported residual activity for these compounds:
O=Nc1c(-c2c(O)[nH]c3ccccc23)[nH]c2ccccc12 = 98
O=C1NC(=O)/C(=C/c2ccc3c(c2)OC(F)(F)O3)S1 = 111
Cc1ccc(S(=O)(=O)/C=C/C#N)cc1 = 96
c1ccc(-c2n[nH]c3c2oc2ccccc23)cc1 = 117
CO[C@H]1[C@@H](OC)C[C@H](C)[C@@H](OC)C2=CC(=O)C=C(NC(=O)/C(C)=C/C=C/[C@H](OC)[C@@H](OC(N)=O)/C(C)=C/[C@@H]1C)C2=O = 106
CCC(=O)Nc1ccc2ncnc(Nc3cccc(Br)c3)c2c1 = 119
Nc1nc(Nc2ccc(S(N)(=O)=O)cc2)nn1C(=S)Nc1c(F)cccc1F = 77

// next entry
Task: Form field - read-out: residual activity; system: Protein kinase C zeta type (Homo sapiens); submitted item: O=C(Nc1cccc(Nc2nccc(Nc3cccc(C(F)(F)F)c3)n2)c1)C1CC1
Result: 116
